target: CcrM WT (Caulobacter crescentus, UniProt P0CAW2 1-358); assay: fluorescence anisotropy; 30 uM SAH; Hill h = 2.1; apparent Kd; Anisotropy: 10 nM FAM-DNA, 0-1000 nM protein, 30 uM SAH, 100 mM HEPES, 1 mM EDTA, 20 mM NaCl, pH 8, room temperature, 20 min; Trp fluorescence: same buffer plus 2 mM DTT, 500 nM protein, 60 uM sinefungin, 5 uM DNA; details: protein: recombinant; chain copies: 2; label: 5' 6-FAM on strand 1; blunt
Sequence (P0CAW2 whole entry): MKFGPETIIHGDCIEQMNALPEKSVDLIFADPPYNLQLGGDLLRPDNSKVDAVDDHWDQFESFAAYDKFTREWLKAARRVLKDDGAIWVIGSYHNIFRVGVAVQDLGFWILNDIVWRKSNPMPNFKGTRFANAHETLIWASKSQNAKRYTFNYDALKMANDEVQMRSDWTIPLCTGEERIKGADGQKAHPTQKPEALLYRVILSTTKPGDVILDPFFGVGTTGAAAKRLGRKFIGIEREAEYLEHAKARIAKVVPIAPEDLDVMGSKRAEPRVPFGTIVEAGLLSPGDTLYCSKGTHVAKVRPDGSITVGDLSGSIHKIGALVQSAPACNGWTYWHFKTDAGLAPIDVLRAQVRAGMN

binder: NC-FAM (dsDNA, N6-methyl-A at position 14 (5' to 3') of strand 2) DNA 1: TCACTGTACTCTGACTGGCCTGACATGAC DNA 2: GTCATGTCAGGCCAGTCAGAGTACAGTGA
endpoint_unit: nM
Kd: 135

Where these numbers come from: paper PMC10359602
